Hey, just so you know, these numbers are from paper PMC10486429.

# System: KB tumor-bearing athymic nude mice
# assay: Biodistribution of 177Lu-RedFols in KB tumor-bearing mice
# Type: in vivo, mouse
# runConditions: 24 h p.i.
attributeMeasured: Blood, accumulated activity (% IA/g)

CN1c2c(nc(N)[nH]c2=O)NCC1CNc1ccc(C(=O)NC(CCC(=O)NC(CCCCNC(=O)CN2CCN(CC(=O)[O-])CCN(CC(=O)[O-])CCN(CC(=O)[O-])CC2)C(=O)NC(CCCCNC(=O)c2ccc(CNC(=O)CCCCc3ccc(I)cc3)cc2)C(=O)O)C(=O)O)cc1.[177Lu+3] (stereo not drawn) [[^177Lu]Lu-6S-RedFol-25] | 0.15
CN1c2c(nc(N)[nH]c2=O)NCC1CNc1ccc(C(=O)NC(CCC(=O)NC(CCCCNC(=O)CN2CCN(CC(=O)[O-])CCN(CC(=O)[O-])CCN(CC(=O)[O-])CC2)C(=O)NC(CCCCNC(=O)c2ccc(CNC(=O)CCCc3ccc(I)cc3)cc2)C(=O)O)C(=O)O)cc1.[177Lu+3] (stereo not drawn) [[^177Lu]Lu-6S-RedFol-3] | 8.7
CN1c2c(nc(N)[nH]c2=O)NC[C@H]1CNc1ccc(C(=O)N[C@@H](CCC(=O)N[C@@H](CCCCNC(=O)CN2CCN(CC(=O)O)CCN(CC(=O)O)CCN(CC(=O)O)CC2)C(=O)N[C@@H](CCCCNC(=O)c2ccc(CNC(=O)CCCCc3ccc(I)cc3)cc2)C(=O)O)C(=O)O)cc1 [[^177Lu]Lu-6R-RedFol-25, metal not drawn] | 0.16
CN1c2c(nc(N)[nH]c2=O)NC[C@H]1CNc1ccc(C(=O)N[C@@H](CCC(=O)N[C@@H](CCCCNC(=O)CN2CCN(CC(=O)O)CCN(CC(=O)O)CCN(CC(=O)O)CC2)C(=O)N[C@@H](CCCCNC(=O)c2ccc(CNC(=O)CCCc3ccc(I)cc3)cc2)C(=O)O)C(=O)O)cc1 [[^177Lu]Lu-6R-RedFol-3, metal not drawn] | 7.9
CN1c2c(nc(N)[nH]c2=O)NC[C@H]1CNc1ccc(C(=O)N[C@@H](CCC(=O)N[C@@H](CCCCNC(=O)CN2CCN(CC(=O)O)CCN(CC(=O)O)CCN(CC(=O)O)CC2)C(=O)N[C@@H](CCCCNC(=O)CCCCc2ccc(I)cc2)C(=O)O)C(=O)O)cc1 [[^177Lu]Lu-6R-RedFol-24, metal not drawn] | 0.06
